assay: Cytotoxicity against mouse BV-2 cells assessed as cell viability incubated for 24 hrs by CCK-8 method; format: toxicity, cell-based
measure.name: IC50 at 24 h

Below: 10 molecules and their reported IC50 at 24 h.
Cc1ccc(C(=O)NCCc2c[nH]c3c(N(C)C)cccc23)c(O)c1 > 100 µM
O=C(NCCc1c[nH]c2ccccc12)c1cc(Cl)ccc1O > 100 µM
Cc1ccc(C(=O)NCCc2c[nH]c3cccc(C)c23)c(O)c1 > 100 µM
Cc1ccc(C(=O)NCCc2c[nH]c3ccccc23)c(O)c1 > 100 µM
Cc1ccc(C(=O)NCCc2c[nH]c3cccc(Br)c23)c(O)c1 > 100 µM
Cc1ccc(C(=O)NCCc2c[nH]c3cccc(Cl)c23)c(O)c1 89.1 µM
O=C(NCCc1c[nH]c2ccccc12)c1ccc(Br)cc1O > 100 µM
Cc1ccc(C(=O)NCCc2c[nH]c3cc(N(C)C)ccc23)c(O)c1 52.4 µM
Cc1ccc(C(=O)NCCc2c[nH]c3cc(F)ccc23)c(O)c1 > 100 µM
Cc1ccc(C(=O)NCCc2c[nH]c3cc(F)cc(F)c23)c(O)c1 32.7 µM

Need IC50 at 24 h of `COc1ccc2[nH]cc(CCNC(=O)c3ccc(C)cc3O)c2c1` , thanks. > 100 µM

Check `COc1ccc2c(CCNC(=O)c3ccc(C)cc3O)c[nH]c2c1` too. > 100 µM

Check `COc1cc2[nH]cc(CCNC(=O)c3ccc(C)cc3O)c2cc1OC` too. 26.5 µM

Source of measurements: ChEMBL document CHEMBL5614422
